Reported combination Emax values for a set of molecules
- Test system: LNZTA3WT4 (Low Grade Glioma)
- test protocol: combination Emax (second highest fraction inhibited in the dose matrix, 72 h); higher = more inhibition; extreme values may be limits of the assay
Would you mind answering with just the numeric figure?

Consider the following illustrative entries.
[[record]]
molecule = "CS(=O)(=O)CCNCc1ccc(-c2ccc3ncnc(Nc4ccc(OCc5cccc(F)c5)c(Cl)c4)c3c2)o1 [Lapatinib] + NC1(c2ccc(-c3nc4ccn5c(=O)[nH]nc5c4cc3-c3ccccc3)cc2)CCC1 [MK-2206] (first compound max 10 µM, 7x7, partner max 10 µM)"
experimental_readout = "combination Emax"
data_value = 0.911

[[record]]
molecule = "C[C@@H](c1ccc2nccn2c1)n1nnc2ncc(-c3cnn(C)c3)nc21 [Savolitinib] + CC1(C)CCC(CN2CCN(c3ccc(C(=O)NS(=O)(=O)c4ccc(NCC5CCOCC5)c([N+](=O)[O-])c4)c(Oc4cnc5[nH]ccc5c4)c3)CC2)=C(c2ccc(Cl)cc2)C1 [Venetoclax] (first compound max 1 µM, 7x7, partner max 1 µM)"
experimental_readout = "combination Emax"
data_value = 0.162


Let's switch to this molecule now.
Exercise: Give combination Emax for COc1nnc2ccc(N3CCC(c4ccc(OCCN5CCN(C)C(=O)[C@H]5C)cc4)CC3)nn12 [AZD5153] + CC1(C)CCC(CN2CCN(c3ccc(C(=O)NS(=O)(=O)c4ccc(NCC5CCOCC5)c([N+](=O)[O-])c4)c(Oc4cnc5[nH]ccc5c4)c3)CC2)=C(c2ccc(Cl)cc2)C1 [Venetoclax] (first compound max 1 µM, 7x7, partner max 1 µM)
Solution: 0.344

====

Measured combination Emax of individual entries
- System: NCI-H2052 (Mesothelioma)
- test protocol: combination Emax (second highest fraction inhibited in the dose matrix, 72 h); higher = more inhibition; extreme values may be limits of the assay

[[record]]
compound = "NC1(C(=O)N[C@@H](CCO)c2ccc(Cl)cc2)CCN(c2ncnc3[nH]ccc23)CC1 [Capivasertib] + COc1nnc2ccc(N3CCC(c4ccc(OCCN5CCN(C)C(=O)[C@H]5C)cc4)CC3)nn12 [AZD5153] (first compound max 10 µM, 7x7, partner max 1 µM)"
data_value = 0.427

[[record]]
compound = "CC1(C)CCC(CN2CCN(c3ccc(C(=O)NS(=O)(=O)c4ccc(NCC5CCOCC5)c([N+](=O)[O-])c4)c(Oc4cnc5[nH]ccc5c4)c3)CC2)=C(c2ccc(Cl)cc2)C1 [Venetoclax] + CCN(CCO)CCCOc1ccc2c(Nc3cc(CC(=O)Nc4cccc(F)c4)[nH]n3)ncnc2c1 [AZD2811] (first compound max 1 µM, 7x7, partner max 1 µM)"
data_value = 0.181


We next turn to a different compound, shown below.
Exercise: Please list combination Emax recorded for the compound COc1cccc(OCCCN)c1-c1cc(Nc2cnc(C#N)cn2)n[nH]1 [Prexasertib] + O=C(c1cc(Cc2n[nH]c(=O)c3ccccc23)ccc1F)N1CCN(C(=O)C2CC2)CC1 [Olaparib] (first compound max 1 µM, 7x7, partner max 10 µM)
Solution: 0.589

====

Entries annotated with measured Bliss excess
- Test system: Detroit562 (Head and Neck Carcinoma);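 note: after 72 h of two-drug dosing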
- test protocol: Bliss excess, mean over the matrix (fraction); higher = more synergy
// no unit, no text: just the number

Here's what some known entries look like.
[[record]]
compound = "COc1cccc2c1C(=O)c1c(O)c3c(c(O)c1C2=O)C[C@@](O)(C(=O)CO)C[C@@H]3O[C@H]1C[C@H](N)[C@H](O)[C@H](C)O1 [Doxorubicin] + Cc1cc2ncnn2cc1Nc1ncc2c(n1)n(C1CCOCC1)c(=O)n2C [AZD7648] (first compound max 1 µM, 7x7, partner max 10 µM)"
tested_on = "Detroit562 (Head and Neck Carcinoma)"
experimental_readout = "Bliss excess"
data_value = 0.103

[[record]]
compound = "COc1nnc2ccc(N3CCC(c4ccc(OCCN5CCN(C)C(=O)[C@H]5C)cc4)CC3)nn12 [AZD5153] + CC1(C)CCC(CN2CCN(c3ccc(C(=O)NS(=O)(=O)c4ccc(NCC5CCOCC5)c([N+](=O)[O-])c4)c(Oc4cnc5[nH]ccc5c4)c3)CC2)=C(c2ccc(Cl)cc2)C1 [Venetoclax] (first compound max 1 µM, 7x7, partner max 1 µM)"
tested_on = "Detroit562 (Head and Neck Carcinoma)"
experimental_readout = "Bliss excess"
data_value = -0.0552

[[record]]
compound = "CC(=O)c1c(C)c2cnc(Nc3ccc(N4CCNCC4)cn3)nc2n(C2CCCC2)c1=O [Palbociclib] + CN(CC[C@H](CSC1=CC=CC=C1)NC2=C(C=C(C=C2)S(=O)(=O)NC(=O)C3=CC=C(C=C3)N4CCC(CC4)[C@H](C5=CC=CC=C5C6=CC=C(C=C6)Cl)O)S(=O)(=O)C(F)(F)F)CCO [AZD4320] (first compound max 10 µM, 7x7, partner max 1 µM)"
tested_on = "Detroit562 (Head and Neck Carcinoma)"
experimental_readout = "Bliss excess"
data_value = 0.0001

[[record]]
compound = "CN(C)CCCOc1ccc(-c2ccc3ncc4c(c3c2)n(C2CCOCC2)c(=O)n4C)cn1 [AZD0156] + CCN(CCO)CCCOc1ccc2c(Nc3cc(CC(=O)Nc4cccc(F)c4)[nH]n3)ncnc2c1 [AZD2811] (first compound max 1 µM, 7x7, partner max 1 µM)"
tested_on = "Detroit562 (Head and Neck Carcinoma)"
experimental_readout = "Bliss excess"
data_value = 0.0235

[[record]]
compound = "CCc1c2c(nc3ccc(O)cc13)-c1cc3c(c(=O)n1C2)COC(=O)[C@]3(O)CC [SN-38] + CN(C)CCCOc1ccc(-c2ccc3ncc4c(c3c2)n(C2CCOCC2)c(=O)n4C)cn1 [AZD0156] (first compound max 0.3 µM, 7x7, partner max 1 µM)"
tested_on = "Detroit562 (Head and Neck Carcinoma)"
experimental_readout = "Bliss excess"
data_value = 0.118

[[record]]
compound = "NC1(C(=O)N[C@@H](CCO)c2ccc(Cl)cc2)CCN(c2ncnc3[nH]ccc23)CC1 [Capivasertib] + CC(=O)c1c(C)c2cnc(Nc3ccc(N4CCNCC4)cn3)nc2n(C2CCCC2)c1=O [Palbociclib] (first compound max 10 µM, 7x7, partner max 10 µM)"
tested_on = "Detroit562 (Head and Neck Carcinoma)"
experimental_readout = "Bliss excess"
data_value = 0.0585


Exercise: For the compound Cc1c2c(nn1C)CSCc1cc(n(C)n1)CSc1cc(c3ccccc3c1)OCCCc1c(C(=O)O)n(C)c3c-2c(Cl)ccc13 [AZD5991] + Cc1cc2ncnn2cc1Nc1ncc2c(n1)n(C1CCOCC1)c(=O)n2C [AZD7648] (first compound max 1 µM, 7x7, partner max 10 µM) , give its reported Bliss excess.
Solution: -0.0172
